Cited source for all entries: patent US20170253607A1

# subject_of_test: HIV-1 PR (Human immunodeficiency virus type 1 group M subtype B, UniProt P04585)
# method_summary: HIV-protease inhibitory activity assay (FRET peptide substrate)
# protocol_conditions: Test Example 1
measurement_kind: IC50 (nM)
Give the value in nM but do not write nM after it.

Ask: Request: IC50, test system HIV-1 PR (Human immunodeficiency virus type 1 group M subtype B, UniProt P04585), entry COc1ccc(S(=O)(=O)N(CC(C)C)CC(O)C(Cc2ccc(SCc3ccccc3-c3sc4c(c3C(=O)O)CC(C)(C)CC4)cc2)NC(=O)OC2COC3(C)OCCC23)cc1 (stereo not drawn)
Reply: 5.51

Ask: Identify the measured IC50 of COc1ccc(S(=O)(=O)N(CC(C)C)CC(O)C(Cc2ccc(N(C)CC3CC(C)(C)CCC3c3sc4c(c3C(=O)O)CC(C)(C)CC4)cc2)NC(=O)OC2COC3(C)OCCC23)cc1 (stereo not drawn) [Compound I-770] for HIV-1 PR (Human immunodeficiency virus type 1 group M subtype B, UniProt P04585).
Reply: 5.56

Ask: Please tell me: IC50 of COc1ccc(S(=O)(=O)N(CC(C)C)CC(O)C(Cc2ccc(NCC3=C(c4sc5c(c4C(=O)O)CC(C)(C)CC5)CC(C)(C)C3)cc2)NC(=O)OC2COC3(C)OCCC23)cc1 (stereo not drawn) , system HIV-1 PR (Human immunodeficiency virus type 1 group M subtype B, UniProt P04585)?
Reply: 2.51
